- test-target: T1, HetR D270A (Anabaena sp. PCC 7120, UniProt P27709 1-299, D270A)
- T1 construct: HetR of Anabaena sp; PCC 7120, point mutant made from the plasmid of wild-type HetR; source: E. coli, purified in the same manner as the wild-type protein
- T1 sequence (looked up): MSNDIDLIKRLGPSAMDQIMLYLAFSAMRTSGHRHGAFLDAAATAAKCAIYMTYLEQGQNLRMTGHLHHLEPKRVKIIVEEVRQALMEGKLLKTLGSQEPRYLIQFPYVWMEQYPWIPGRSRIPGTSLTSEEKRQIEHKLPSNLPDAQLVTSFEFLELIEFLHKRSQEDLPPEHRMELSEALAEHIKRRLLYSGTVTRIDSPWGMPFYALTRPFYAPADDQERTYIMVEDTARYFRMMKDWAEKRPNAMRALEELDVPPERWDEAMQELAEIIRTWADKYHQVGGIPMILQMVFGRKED
- protocol-summary: ITC; iTC200, 25 °C; protein in the sample cell (10 or 50 μM), PatS6 in the syringe (150 or 750 μM; 2 mM for HetR_(Hood)); 1 M NaCl, 5% (v/v) glycerol, 10 mM Tris-Cl, pH 7.8
- reported-conditions: both partners purified
measured-quantity: pKd
The quantity pKd is defined as the negative base-10 logarithm of the molar concentration.

In plain terms, ERGSGR (PatS-derived hexapeptide; RGSGR is the C-terminal five residues of PatS of Anabaena sp; PCC 7120; source: synthetic peptide (GL Biochem, Shanghai)) [PatS6 (PatS-derived hexapeptide ERGSGR)] has a documented pKd of 5.65
